Target: beta-catenin/TCF4 engagement (Homo sapiens, UniProt P35222)
Construct: expressed in transfected cells; host or cells: HEK293
Sequence (P35222 1-781): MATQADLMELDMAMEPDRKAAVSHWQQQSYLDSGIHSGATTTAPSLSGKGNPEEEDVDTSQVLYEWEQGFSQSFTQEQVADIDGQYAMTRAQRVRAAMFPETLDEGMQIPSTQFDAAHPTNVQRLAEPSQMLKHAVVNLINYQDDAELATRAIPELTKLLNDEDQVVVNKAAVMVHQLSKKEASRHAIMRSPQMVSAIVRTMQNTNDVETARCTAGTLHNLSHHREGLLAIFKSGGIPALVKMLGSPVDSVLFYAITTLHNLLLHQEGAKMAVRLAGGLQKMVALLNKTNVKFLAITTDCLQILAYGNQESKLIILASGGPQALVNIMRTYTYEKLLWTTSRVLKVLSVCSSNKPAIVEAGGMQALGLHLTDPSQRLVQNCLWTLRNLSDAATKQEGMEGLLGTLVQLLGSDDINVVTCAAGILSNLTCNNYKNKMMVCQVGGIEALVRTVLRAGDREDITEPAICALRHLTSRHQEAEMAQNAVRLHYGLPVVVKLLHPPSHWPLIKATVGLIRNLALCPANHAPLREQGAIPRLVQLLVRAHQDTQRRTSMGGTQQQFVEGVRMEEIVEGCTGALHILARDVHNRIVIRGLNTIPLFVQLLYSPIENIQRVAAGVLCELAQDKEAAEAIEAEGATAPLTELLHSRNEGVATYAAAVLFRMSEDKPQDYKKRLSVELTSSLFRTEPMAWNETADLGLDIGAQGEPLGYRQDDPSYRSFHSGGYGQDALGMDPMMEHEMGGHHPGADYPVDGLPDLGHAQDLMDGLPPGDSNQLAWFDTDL
Test: Nano-BRET target engagement assay (B-cat-Halo & TCF4-Luc in HEK293 cells)
Type: cell-based
Conditions: read-out: NanoBRET Abs IC50
measure: IC50 (µM)
One number for each entry, in µM.

# molecule, units text, endpoint value
rows = [
    ("CC(=O)N1CCC[C@]12CC=CCCCC1(CCCC=CCCCOC(=O)N3CC[C@@](C(=O)N[C@@H](Cc4ccsc4)C(=O)N[C@@H](Cc4csc5ccccc45)C(=O)N[C@@H](CCC(N)=O)C(=O)N[C@@H](CCCCNC(=O)C45CC6(C)CC(C)(CC(C)(C6)C4)C5)C(N)=O)(C3)NC(=O)[C@H](CC(N)=O)NC(=O)[C@H](Cc3ccccc3)NC(=O)[C@H](C)NC(=O)[C@H](C)NC(=O)[C@H](CC(=O)O)NC(=O)[C@H](CC(=O)O)NC1=O)NC(=O)[C@H](CC(C)(C)C)NC(=O)[C@H](CC(=O)O)NC2=O (some centres unmarked)", "µM", 17.7),
]

Consider the record given below.
Query IC50 on beta-catenin/TCF4 engagement (Homo sapiens, UniProt P35222) for CC(=O)N1CCC[C@]12CC=CCCCC1(CCCC=CCCCOC(=O)N3CC[C@@](C(=O)N[C@@H](Cc4ccsc4)C(=O)N[C@@H](Cc4csc5ccccc45)C(=O)N[C@@H](CCC(N)=O)C(N)=O)(C3)NC(=O)[C@H](CCO)NC(=O)[C@H](Cc3cccc(C(=O)O)c3)NC(=O)[C@H](C)NC(=O)[C@H](C)NC(=O)[C@H](Cc3c[nH]cn3)NC(=O)[C@H](CC(=O)O)NC1=O)NC(=O)[C@H](CC(C)(C)C)NC(=O)[C@H](CC(=O)O)NC2=O (some centres unmarked) [I-2120]
37.2

* * *

Give CHI Log D for every item shown.
Assay: CHI Log D procedure
Format: physicochemical
Settings: pH 7.4
Numbers only.

# compound, CHI Log D
rows = [
    ("CC(=O)N1CCC[C@]12CC=CCCCC1(CCCC=CCCCCCC[C@@](C)(C(=O)N[C@@H](Cc3ccccc3)C(=O)N[C@@H](Cc3csc4ccccc34)C(=O)N[C@@H](CCC(N)=O)C(N)=O)NC(=O)[C@H](C(C)C)NC(=O)[C@H](Cc3ccccc3)NC(=O)[C@H](C)NC(=O)[C@H](C)NC(=O)[C@H](CC(=O)O)NC(=O)[C@H](CC(=O)O)NC1=O)NC(=O)[C@H](CCC(N)=O)NC(=O)[C@H](CC(=O)O)NC2=O (some centres unmarked) [I-347]", 1.956),
]

Consider the record given below.
What CHI Log D value was documented for this compound, CC(=O)N1CCC[C@]12CC=CCCCC1(CCCC=CCCCCOC(=O)N3CC[C@@](C(=O)N[C@@H](Cc4ccsc4)C(=O)N[C@@H](Cc4csc5ccccc45)C(=O)N[C@@H](CC(N)=O)C(=O)N[C@H](C)C(N)=O)(C3)NC(=O)[C@H](CC(N)=O)NC(=O)[C@H](Cc3ccccc3)NC(=O)[C@H](C)NC(=O)[C@H](C)NC(=O)[C@H](CC(=O)O)NC(=O)[C@H](CC(=O)O)NC1=O)NC(=O)[C@H](CC(C)(C)C)NC(=O)[C@H](CC(=O)O)NC2=O (some centres unmarked) [I-835] ?
2.109

* * *

Biological target: full-length beta-Catenin (Uniprot ID P35222) (Homo sapiens, UniProt P35222)
Construct: 10 nM full-length beta-Catenin (Uniprot ID P35222)
Assay: Fluorescence polarization IC50 (beta-catenin / 5FAM-TCF4 10-53 competition)
Assay type: binding
Details: fluorescence polarization; read-out: beta-Catenin FP IC50
measure: pIC50
Answers are plain numbers, as −log10 of the molar value.

Guide cases for pIC50, answers given:
# compound, measure, endpoint value
data = [
    ("CC(=O)N1CCC[C@]12CC=CCCCC1(CCCC=CCCCOC(=O)N3CC[C@@](C(=O)N[C@@H](Cc4ccsc4)C(=O)N[C@@H](Cc4csc5ccccc45)C(=O)N[C@@H](CCC(N)=O)C(N)=O)(C3)NC(=O)[C@H](CC(C)C)NC(=O)[C@H](Cc3ccccc3)NC(=O)[C@H](C)NC(=O)[C@H](C)NC(=O)[C@H](CCC(=O)S)NC(=O)[C@H](CC(=O)O)NC1=O)NC(=O)[C@H](CC(C)(C)C)NC(=O)[C@H](CC(=O)O)NC2=O (stereo partly drawn) [I-1949]", "pIC50", 7.02),
    ("CC(=O)N1CCC[C@]12CC=CCCCC1(CCCC=CCCCOC(=O)N3CC[C@@](C(=O)N[C@@H](Cc4ccsc4)C(=O)N[C@@H](Cc4csc5ccccc45)C(=O)N[C@@H](CCC(N)=O)C(N)=O)(C3)NC(=O)[C@H](CC(C)C)NC(=O)[C@H](Cc3ccccc3)NC(=O)[C@H](C)NC(=O)[C@H](C)NC(=O)[C@H](CCC(=O)O)NC(=O)[C@H](CC(=O)O)NC1=O)NC(=O)[C@H](CC(C)(C)C)NC(=O)[C@H](CC(=O)O)NC2=O (stereo partly drawn)", "pIC50", 8.15),
    ("CC[C@H](C)[C@@H]1NC(=O)[C@H](CC(=O)O)NC(=O)[C@]2(CC=CCCCC3(CCCC=CCCCCCC[C@@](C)(C(=O)N[C@@H](Cc4ccccc4)C(=O)N[C@@H](Cc4csc5ccccc45)C(=O)N[C@@H](CCC(N)=O)C(N)=O)NC(=O)[C@H](CCC(N)=O)NC(=O)[C@H](CC(C)(C)C)NC(=O)[C@H](C)NC(=O)[C@H](C)NC(=O)[C@H](CCC(=O)O)NC(=O)[C@H](CC(=O)O)NC3=O)NC1=O)CCCN2C(C)=O (stereo partly drawn)", "pIC50", 5.30),
]

Quick one: give me pIC50 for each item below, same order please.
1. CC(=O)N1CCC[C@]12CC=CCCCC1(CCCC=CCCCOC(=O)N3CC[C@@](C(=O)N[C@@H](Cc4ccsc4)C(=O)N[C@@H](Cc4csc5ccccc45)C(=O)N[C@@H](CCC(N)=O)C(N)=O)(C3)NC(=O)[C@H](CC(C)C)NC(=O)[C@H](Cn3cc(CN4CCNCC4)nn3)NC(=O)[C@H](C)NC(=O)[C@H](C)NC(=O)[C@H](CN(CC(=O)O)CC(F)(F)F)NC(=O)[C@H](CC(=O)O)NC1=O)NC(=O)[C@H](CC(C)(C)C)NC(=O)[C@H](CC(=O)O)NC2=O (stereo partly drawn)
2. CC(=O)N1CCC[C@]12CC=CCCCC1(CCCC=CCCCCCC[C@@](C)(C(=O)N[C@@H](Cc3ccsc3)C(=O)N[C@@H](Cc3csc4ccccc34)C(=O)N[C@@H](CCC(N)=O)C(N)=O)NC(=O)[C@H](CC(N)=O)NC(=O)[C@H](Cc3ccccc3)NC(=O)[C@H](C)NC(=O)[C@H](C)NC(=O)[C@H](CN(CC(=O)O)Cc3ccccc3)NC(=O)[C@H](CC(=O)O)NC1=O)NC(=O)[C@H](CC(C)(C)C)NC(=O)[C@H](CC(=O)O)NC2=O (stereo partly drawn)
3. CC[C@H](C)[C@@H]1NC(=O)[C@H](CC(=O)O)NC(=O)[C@]2(CC=CCCCC3(CCCC=CCCCCCC[C@@](C)(C(=O)N[C@@H](Cc4ccccc4)C(=O)N[C@@H](Cc4csc5ccccc45)C(=O)N[C@@H](Cc4c[nH]cn4)C(N)=O)NC(=O)[C@H](CCC(N)=O)NC(=O)[C@H](Cc4ccccc4)NC(=O)[C@H](C)NC(=O)[C@H](C)NC(=O)[C@H](CN(CC(=O)O)CC(F)(F)F)NC(=O)[C@H](CC(=O)O)NC3=O)NC1=O)CCCN2C(C)=O (stereo partly drawn)
4. CCCC[C@@H]1NC(=O)[C@H](CC(=O)O)NC(=O)[C@]2(CCCCCCC3(CCCCCCCCOC(=O)N4CC[C@@](C(=O)N[C@@H](Cc5ccccc5C(F)(F)F)C(=O)N[C@@H](Cc5csc6ccccc56)C(=O)N[C@@H](CCC(N)=O)C(N)=O)(C4)NC(=O)[C@H](CC(C)C)NC(=O)[C@H](Cc4ccccc4)NC(=O)[C@H](C)NC(=O)[C@H](C)NC(=O)[C@H](Cc4cccc(C(=O)O)c4)NC(=O)[C@H](CC(=O)O)NC3=O)NC1=O)CCCN2C(C)=O (stereo partly drawn)
5. CC(=O)N1CCC[C@]12CC=CCCCC1(CCCC=CCCCOC(=O)N3CC[C@@](C(=O)N[C@@H](Cc4ccsc4)C(=O)N[C@@H](Cc4ccc5ccccc5c4)C(=O)N[C@@H](CCC(N)=O)C(N)=O)(C3)NC(=O)[C@H](CC(C)C)NC(=O)[C@H](Cc3ccccc3)NC(=O)[C@H](C)NC(=O)[C@H](C)NC(=O)[C@H](CC(=O)O)NC(=O)[C@H](CC(=O)O)NC1=O)NC(=O)[C@H](CC(C)(C)C)NC(=O)[C@H](CC(=O)O)NC2=O (stereo partly drawn)
6. CC(=O)N1CCC[C@]12CC=CCCCC1(CCCC=CCCCCCC[C@@](C)(C(=O)N[C@@H](Cc3ccccc3)C(=O)N[C@@H](Cc3csc4ccccc34)C(=O)N[C@@H](CCC(N)=O)C(N)=O)NC(=O)[C@H](CCC(N)=O)NC(=O)[C@H](Cc3ccccc3)NC(=O)[C@H](C)NC(=O)[C@H](C)NC(=O)[C@H](CCC(=O)O)NC(=O)[C@H](CC(=O)O)NC1=O)NC(=O)[C@H](CCO)NC(=O)[C@H](CC(=O)O)NC2=O (stereo partly drawn) [I-1544]

[5.40, 7.80, 6.75, 6.75, 7.57, 7.21]
